EXPERIMENTAL TARGET: hH4R (Homo sapiens, UniProt Q9H3N8)
Sequence (Q9H3N8 whole entry): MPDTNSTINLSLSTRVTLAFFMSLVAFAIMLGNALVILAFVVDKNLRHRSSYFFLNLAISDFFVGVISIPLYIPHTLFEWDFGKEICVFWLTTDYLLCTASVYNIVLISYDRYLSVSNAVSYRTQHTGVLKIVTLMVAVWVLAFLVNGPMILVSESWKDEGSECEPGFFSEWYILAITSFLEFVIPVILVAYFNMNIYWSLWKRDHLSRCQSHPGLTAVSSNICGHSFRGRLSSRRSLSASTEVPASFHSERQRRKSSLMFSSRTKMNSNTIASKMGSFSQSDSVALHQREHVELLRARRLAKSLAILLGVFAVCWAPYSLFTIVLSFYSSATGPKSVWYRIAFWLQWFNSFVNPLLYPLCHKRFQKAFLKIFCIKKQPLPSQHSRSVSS
EXPERIMENTAL DETAILS: β-arrestin recruitment assay (LiveBLAzer, Tango-H4-bla U2OS cells)
Type: cell-based
Parameters: expressed in transfected cells; host or cells: Tango-H4-bla U2OS cells
CONDITION SET: calculated from IC50 by Leff–Dougall variant of Cheng–Prusoff equation; read-out: pKb β-arrestin ± SEM (converted)
MEASUREMENT KIND: log10(Kb) (log10 of the value in nM)
Give log10 of Kb, with Kb taken in nM.

INSERT INTO results (compound, numeric_result) VALUES
  ('CN1CCN(c2nc(N)nc(C3CC3)n2)CC1 [Compound 2]', 1.68);

Q. Which log10(Kb) reading was recorded for the compound C=CC(C)Cc1nc(N)nc(N2CCN(C)CC2)n1 (stereo not shown) [Compound 18] ?
A. 1.04

Q. Then this compound: CN1CCN(c2nc(N)nc(C3CCC3)n2)CC1 [Compound 3]
A. 1.22

Q. Then this compound: C=CCC(C)c1nc(N)nc(N2CCN(C)CC2)n1 (stereo not shown) [Compound 17]
A. 2.07

Q. Then this compound: CCCCCc1nc(N)nc(N2CCN(C)CC2)n1 [Compound 19]
A. 0.75

Q. Then this compound: CN1CCN(c2nc(N)nc(C3CCCCC3)n2)CC1 [Compound 5]
A. 1.22

Q. Then this compound: CCCC(C)c1nc(N)nc(N2CCN(C)CC2)n1 (stereo not shown) [Compound 11]
A. 1.20

Q. Then this compound: CC(C)CCc1nc(N)nc(N2CCN(C)CC2)n1 [Compound 14]
A. 0.59

Q. Then this compound: CN1CCN(c2nc(N)nc(CC3CCCC3)n2)CC1 [Compound 6]
A. 0.21

Q. Then this compound: CCC(C)Cc1nc(N)nc(N2CCN(C)CC2)n1 (stereo not shown) [Compound 12]
A. 0.79

Q. Then this compound: CN1CCN(c2nc(N)nc(C3CCCC3)n2)CC1 [Compound 4]
A. 1.06

Q. Then this compound: CN1CCN(c2nc(N)nc(CC3CCCCC3)n2)CC1 [TR-AF-49]
A. 1.05

Q. Then this compound: CCCCc1nc(N)nc(N2CCN(C)CC2)n1 [Compound 10]
A. 1.13

Q. Then this compound: CN1CCN(c2nc(N)nc(CC3=CCCCC3)n2)CC1 [Compound 8]
A. 0.83

Q. Then this compound: CN1CCN(c2nc(N)nc(CC3C=CCC3)n2)CC1 (stereo not shown) [Compound 7]
A. 0.37

Q. Then this compound: C=CCCc1nc(N)nc(N2CCN(C)CC2)n1 [Compound 16]
A. 1.37

====

Known pIC50 of a selection of compounds
EXPERIMENTAL TARGET: hH4R (Homo sapiens)
EXPERIMENTAL DETAILS: cAMP accumulation assay (LANCE Ultra cAMP, CHO-K1 cells stably expressing hH4R)
Type: cell-based
Design: expressed in transfected cells
CONDITION SET: antagonist mode, forskolin 10 µM, histamine 140 nM, CHO-K1 hH4R cells; read-out: cAMP hH4R IC50 ± SEM
In plain terms, pIC50 is the concentration in mol/L turned into minus its base-10 logarithm.

Guide cases for pIC50, answers given:
INSERT INTO measurements (compound, numeric_result) VALUES
  ('CN1CCN(c2nc(N)nc(CC3=CCCCC3)n2)CC1', 6.13),
  ('CCC(C)Cc1nc(N)nc(N2CCN(C)CC2)n1 (stereo not shown)', 6.88),
  ('CCCCCc1nc(N)nc(N2CCN(C)CC2)n1', 6.38),
  ('CN1CCN(c2nc(N)nc(CC3C=CCC3)n2)CC1 (stereo not shown)', 7.48),
  ('CN1CCN(c2nc(N)nc(CC3CCCCC3)n2)CC1', 6.57);

Q. Which pIC50 reading was recorded for the compound CN1CCN(c2nc(N)nc(CC3CCCC3)n2)CC1 ?
A. 8.00

Q. Then this compound: CC(C)CCc1nc(N)nc(N2CCN(C)CC2)n1
A. 7.37

====

Known melting point of a selection of molecules

Guide cases for melting point, answers given:
INSERT INTO assay_data (molecule, result) VALUES
  ('COC(C)Cc1nc(N)nc(N2CCN(C)CC2)n1 (stereo not shown)', '148 to 151 °C'),
  ('CN1CCN(c2nc(N)nc(C3CCC3)n2)CC1', '127 to 132 °C'),
  ('C=CCCc1nc(N)nc(N2CCN(C)CC2)n1', '132 to 133 °C');

# input for lookup
Q. Which melting point reading was recorded for the molecule CN1CCN(c2nc(N)nc(C3CCCC3)n2)CC1 ?
A. 163 to 169 °C

====

EXPERIMENTAL TARGET: UniProtKB Q9H3N8
EXPERIMENTAL DETAILS: cAMP accumulation assay (LANCE Ultra cAMP, CHO-K1 cells stably expressing hH4R)
Format: cell-based
Design: expressed in transfected cells
CONDITION SET: antagonist mode
MEASUREMENT KIND: cAMP hH4R % of max. Antagonist Activity at 10 µM (%)
Numeric only. Scale: %

INSERT INTO measurements (compound, numeric_result) VALUES
  ('CN1CCN(c2nc(N)nc(C3CCC3)n2)CC1', 109),
  ('CCC(C)Cc1nc(N)nc(N2CCN(C)CC2)n1 (stereo not shown)', 111),
  ('CN1CCN(c2nc(N)nc(CC3CCCCC3)n2)CC1', 98);

# input for lookup
Q. Can you look up cAMP hH4R % of max. Antagonist Activity at 10 µM on UniProtKB Q9H3N8 for CCCCCc1nc(N)nc(N2CCN(C)CC2)n1 ?
A. 97
